These compounds were tested on C2C12 myotubes; Viability is the recorded read-out.
Reply: number alone, nothing else.

These solved cases illustrate the format of a correct answer.
Prompt line: Note Viability for the compound shown: OC(c1cc(C(F)(F)F)nc2c(C(F)(F)F)cccc12)C1CCCCN1 (centres unmarked)
Response line: −0.183

Prompt line: Note Viability for the compound shown: NCCS
Response line: −0.271

Prompt line: Note Viability for the compound shown: COC(=O)[C@H](c1ccccc1Cl)N1CCc2sccc2C1
Response line: −1.134

Prompt line: Note Viability for the compound shown: C[C@H]1C[C@@H]2[C@H]([C@@H](O)C[C@@]3(C)[C@H]2CC[C@]3(O)C(=O)CO)[C@@]2(C)C=CC(=O)C=C12
Response line: −0.631

***
Prompt line: Note Viability for the compound shown: CN1CCC[C@H]1c1cccnc1
Response line: −0.093

###

Items are presented alongside their recorded Viability.
test system: C2C12 myotubes; conditions: normalized composite Z-score vs mock-treated (DMSO) wells; Conc 20 μM
Reply: number alone, nothing else.

These solved cases illustrate the format of a correct answer.
Prompt line: State recorded Viability with C2C12 myotubes, entry C=C/C(C)=C\CC1C(C)(O)CCC2C(C)(C)CCCC21C (stereo not drawn) [abienol] , no comment.
Response line: −0.199

Prompt line: State recorded Viability with C2C12 myotubes, entry C#CCCCCCCCCCCCC(O)CC(O)CO (stereo not drawn) [avocadyne] , no comment.
Response line: 0.816

Prompt line: State recorded Viability with C2C12 myotubes, entry CC12CCCC(O)(C1)C1CC(C)(C)C1CC2 (stereo not drawn) [beta-caryophyllene alcohol] , no comment.
Response line: −0.960

Prompt line: State recorded Viability with C2C12 myotubes, entry CC(=O)O[C@@H]1CC2C(C)(C)C(=O)CC[C@]2(C)C2CC[C@]3(C)C(=CC(=O)O[C@H]3c3ccoc3)[C@@]21C (stereo partly drawn) [dihydrodeoxygedunin] , no comment.
Response line: −0.004

***
Prompt line: State recorded Viability with C2C12 myotubes, entry COc1ccc2c(c1)O[C@H]1c3ccc(OC)cc3OC[C@@H]21 [homopterocarpin] , no comment.
Response line: 0.549

Prompt line: State recorded Viability with C2C12 myotubes, entry CC1=CC2C(C(C)C)CCC(C)(O)C2CC1 (stereo not drawn) [cadin-4-en-10-ol] , no comment.
Response line: −0.101

Prompt line: State recorded Viability with C2C12 myotubes, entry CC(=O)O[C@@H]1CC2C(C)(C)[C@H](O)CC[C@]2(C)C2CC[C@@]3(C)[C@H](c4ccoc4)OC(=O)C4OC43[C@@]21C (stereo partly drawn) [3alpha-hydroxydeoxodihydrogedunin] , no comment.
Response line: 0.065

Prompt line: State recorded Viability with C2C12 myotubes, entry Cc1occc(=O)c1/C=C/O [2-methyl-3-hydroxyethylenepyran-4-one] , no comment.
Response line: 0.309

Prompt line: State recorded Viability with C2C12 myotubes, entry CC(C)C1COc2cc3oc(=O)ccc3cc2O1 (stereo not drawn) [dihydro-obliquin] , no comment.
Response line: −0.141

###

tested on: OXPHOS gene expression; format: cell-based, mouse; settings: composite Z-score vs mock-treated (DMSO) wells; Conc 20 μM
Classification by GE-HTS | ranges: group A: < -0.8; group B: ≥ -0.8 and < 0.1; group C: ≥ 0.1

Look over these answered cases.
Prompt line: Determine which band this compound sits in: COc1cc(O)c(C(=O)c2ccccc2)cc1O [cearoin]
Response line: group A

Prompt line: Determine which band this compound sits in: CC(C)=CCc1c(O)cc2oc(C)cc(=O)c2c1O [peucenin]
Response line: group C

Prompt line: Determine which band this compound sits in: COc1ccc2c(c1)O[C@@H]1COc3cc(OC)c(OC)cc3[C@@H]1C2=O [mundoserone, reference compound]
Response line: group B

***
Prompt line: Determine which band this compound sits in: CC1(C)C2CC(=O)O[C@@]3(C)C4=CC(=O)O[C@@H](c5ccoc5)[C@]4(C)CCC3[C@@]2(C)C=C[C@H]1O (stereo partly drawn) [deoxyandirobin lactone]
Response line: group A

Prompt line: Determine which band this compound sits in: CC(=O)[C@H]1CC[C@H]2[C@@H]3CCC4C[C@H](O)CC[C@]4(C)[C@H]3C[C@H](O)[C@]12C (stereo partly drawn) [dihydroxy (3alpha,12alpha)pregnan-20-one]
Response line: group A

Prompt line: Determine which band this compound sits in: CC1(C)C(=O)C=C[C@]2(C)[C@H]3CC[C@@]4(C)[C@H](c5ccoc5)OC(=O)[C@H]5O[C@]54[C@]3(C)C(=O)C[C@@H]12 [deacetoxy-7-oxogedunin]
Response line: group B

Prompt line: Determine which band this compound sits in: COc1cc2occc2c2oc(=O)ccc12 [isobergaptene]
Response line: group C

Prompt line: Determine which band this compound sits in: C[C@]12CCC(=O)C=C1CCc1ccc(O)cc12
Response line: group B

Cited source: patent US20090143279A1
